Kindly supply the reported activation values for the records listed here.
Molecular target: Cellular tumor antigen p53 (Homo sapiens) (UniProt P04637)
Sequence (P04637 whole entry, looked up): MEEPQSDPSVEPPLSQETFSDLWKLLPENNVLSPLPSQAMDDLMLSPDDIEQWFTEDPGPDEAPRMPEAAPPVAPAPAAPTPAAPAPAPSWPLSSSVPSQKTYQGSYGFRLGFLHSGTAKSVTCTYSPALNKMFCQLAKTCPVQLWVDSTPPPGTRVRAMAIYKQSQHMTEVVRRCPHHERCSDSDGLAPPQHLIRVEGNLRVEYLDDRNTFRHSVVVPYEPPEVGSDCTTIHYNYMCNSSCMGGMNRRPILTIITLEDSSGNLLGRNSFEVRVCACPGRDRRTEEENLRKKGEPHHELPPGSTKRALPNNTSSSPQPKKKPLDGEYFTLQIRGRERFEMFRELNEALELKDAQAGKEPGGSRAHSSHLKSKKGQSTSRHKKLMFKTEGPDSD
Assay: Primary qHTS for small molecule compounds that upregulate eGFP-tagged delta133p53alpha (in N-terminal) cells. (AID 2060322);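 note: cells pre-induced with doxycycline then dosed without doxycycline; series mostly up to about 56 µM; 0% = DMSO vehicle and 100% = reference activator; nearly all actives have a fitted effect of over 75% in size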
Settings: NCI-H358 eGFP-delta133p53alpha fluorescence, 24 h; active compounds read high
Inconclusive results are not listed.
One number for each entry, in %.

COc1ccccc1C(=O)Nc1cc2c(cc1N1CCCCC1)n(C)c(=O)n2C | -12.3
COc1cc(C2Oc3c(OC)cc(CCCO[C@@H]4O[C@H](CO)[C@@H](O)[C@H](O)[C@H]4O)cc3C2CO)ccc1O (some centres not stated) | -6.25
O=C(NCC(O)CO)c1c(I)c(C(=O)NCC(O)CO)c(I)c(N(CCO)C(=O)CO)c1I (configuration not stated) | -8.37
CC(C)=CC/C=C(\C)[C@H]1CC[C@]2(C)[C@@H]1[C@H](O)C[C@@H]1[C@@]3(C)CC[C@H](O)C(C)(C)[C@@H]3[C@@H](O[C@@H]3O[C@H](CO)[C@@H](O)[C@H](O)[C@H]3O)C[C@]12C | 1.67
CCCN(CCN1CCN(c2ccccc2OC)CC1)C1CCc2ncsc2C1 (configuration not stated) | -3.57
OC[C@H]1O[C@@H](OC[C@H]2O[C@@H](OC/C=C/c3ccccc3)[C@H](O)[C@@H](O)[C@@H]2O)[C@@H](O)[C@@H]1O | 20.5

Now for a further compound.
The measured activation associated with `C=CCNc1c(O)cc2c(O)c1C[C@@H](C)C[C@H](OC)[C@@H](O)[C@@H](C)C=C(C)[C@H](OC(N)=O)[C@@H](OC)C=CC=C(C)C(=O)N2` reads 1.58
